Target: T1, human pituitary adenylate cyclase-activating polypeptide type I receptor (human, UniProt P41586 21-468)
T1 construct: whole, on cells; On SH-SY5Y or recombinant CHO cells (cAMP assay), as membranes of hPAC-1 AequoScreen CHO cells (radioligand assay) and on CHOK1/huPac1 whole cells (KinExA); also called human PAC1; hPAC1
T1 sequence (looked up): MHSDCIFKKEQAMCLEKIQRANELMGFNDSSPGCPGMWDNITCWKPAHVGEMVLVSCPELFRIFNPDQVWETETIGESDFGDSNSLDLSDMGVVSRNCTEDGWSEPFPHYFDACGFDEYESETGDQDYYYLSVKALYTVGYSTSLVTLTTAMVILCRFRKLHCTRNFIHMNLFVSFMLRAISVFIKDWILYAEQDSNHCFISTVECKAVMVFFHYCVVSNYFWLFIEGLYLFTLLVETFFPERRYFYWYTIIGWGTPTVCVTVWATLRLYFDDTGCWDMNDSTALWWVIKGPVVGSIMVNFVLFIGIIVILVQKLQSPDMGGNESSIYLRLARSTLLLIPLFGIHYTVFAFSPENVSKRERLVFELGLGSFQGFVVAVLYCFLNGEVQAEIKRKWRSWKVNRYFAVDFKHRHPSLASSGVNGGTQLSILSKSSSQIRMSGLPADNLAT
Assay: radioligand competition, hPAC1 CHO membranes; competitor 125I-26B
pKi: −log10 of the molar value.

{"binder": "FTDSYSRYRKQMAVKKYLAAVLGKRYKQRVKNK (peptide, UniProt P18509 137-169, looked up, domain: PACAP 6-38) [PACAP 6-38]", "pKi": 8.20}
